Examples of compounds with documented CC50 at 5 days follow.
experiment: Cytotoxicity Determination (CCK-8, without addition of virus); assay type: cell-based; settings: human, 50% cytotoxicity concentration (CC50)

Recorded CC50 at 5 days, per entry:
{"columns": ["COMPOUND", "CC50 at 5 days"],
 "data": [
  ["COc1cc(C(=O)NCC(N)(CF)c2ccc(OC)c(-c3ccc(F)c(Cl)c3)n2)ccc1OC1CC1 (stereo not shown)", "10 to 100 µM"],
  ["COc1ccc(C(O)(CNC(=O)c2ccc3[nH]cnc3c2)C(F)(F)F)nc1-c1ccc(F)c(Cl)c1 (stereo not shown)", "10 to 100 µM"],
  ["COc1cc(C(=O)NCC(O)(c2ccc(OC)c(-c3ccc(F)c(Cl)c3)n2)C(F)(F)F)ccc1OC1COC1 (stereo not shown)", "10 to 100 µM"],
  ["COc1ccc(C(O)(CO)CNC(=O)c2cc(OC)c3ncccc3c2)nc1-c1ccc(F)c(Cl)c1 (stereo not shown)", "10 to 100 µM"]
]}

I'd like to know its CC50 at 5 days. The compound in question is COc1cc(C(=O)NCC(C)(O)c2cccc(-c3csc4c(F)cccc34)n2)ccc1OCCO (stereo not shown)
10 to 100 µM

Fill in the blank: the reported CC50 at 5 days of COc1cc(C(=O)NCC(O)(CN(CCN)CC(=O)O)c2ccc(OC)c(-c3ccc(F)c(Cl)c3)n2)ccc1OCCO (stereo not shown) is ____.
> 100 µM

What does the record list as CC50 at 5 days for COc1cc(C(=O)NCC(O)c2cccc(-c3csc4c(F)cccc34)n2)ccc1OCCO (stereo not shown) ?
10 to 100 µM

What does the data say about its CC50 at 5 days? Entry: COc1cc(C(=O)NCC(O)(c2cc3c(c(-c4ccc(C(=O)O)cc4)n2)OCC3(C)N)C(F)(F)F)ccc1OCCO (stereo not shown)
> 100 µM

Need CC50 at 5 days, item COc1cc(C(=O)NCC(O)(c2cc(C(C)(C)NC3COC3)cc(-c3ccc(F)c(Cl)c3)n2)C(F)(F)F)ccc1OC1CC1 (stereo not shown)
10 to 100 µM

May I ask what CC50 at 5 days has been recorded for `COc1cc(C(=O)NC[C@@](O)(c2cc3c(c(-c4ccc(F)cc4)n2)OC[C@@]3(C)N)C(F)(F)F)ccc1OC[C@@H](C)O` ?
10 to 100 µM

---

Tested on: Respiratory Syncytial Virus (RSV) long strain
Assay: microbe, parasite or virus in culture
Assay type: cell-based
Conditions: human respiratory syncytial virus, HEp-2, 120 h, read-out: 50% effective concentration (EC50), HEp-2 cells infected with RSV long strain, 5 days, CCK-8 readout; Tables A and B list compounds by EC50 band
Method: CPE reduction assays are performed as described by Sidwell and Huffman et al., Appl. Microbiol. (1971) 22(5):797-801 with slight modifications. […] Place on ice until ready to use. […] After 5 days incubation, observe the CPE of cells in all wells. […] After 3-4 hour incubation, the absorbance of each well is measured with a spectrophotometric plate reader at 450 nm wavelength, using a 630 nm filter as background according to manufacturer's instruction.
Reported EC50 values are given for each entry in this list.

These recorded examples may help you get a feel for the data.
{"columns": ["COMPOUND", "EC50"],
 "data": [
  ["CC(C)(N)c1cc(-c2ccc(F)c(Cl)c2)nc(C(O)(CNC(=O)c2cscn2)C(F)(F)F)c1 (centres unmarked)", "1000 to 50000 nM"],
  ["COc1cc(C(=O)NCC(O)(c2cc3c(c(-c4ccc(F)cc4)n2)OCC3(C)N)C(F)(F)F)cc2cccnc12 (centres unmarked)", "< 1000 nM"]
]}

Look at this compound and give its reported EC50. COc1cc(C(=O)NCC(O)(c2ccc(OC)c(-c3ccc(F)c(Cl)c3)n2)C(F)(F)F)ccc1OC1(CF)CC1 (centres unmarked)
< 1000 nM

Entry under review: COc1ccc(C(O)(CNC(=O)c2ccc(OCC(N)=O)c(Cl)c2)C(F)(F)F)nc1-c1ccc(F)c(Cl)c1 (centres unmarked) . Reported EC50?
< 1000 nM

// lookup EC50 for COc1cc(C(=O)NCC(O)(c2ccc(OCCN)c(-c3ccc(F)cc3)n2)C(F)(F)F)ccc1OC1CC1 (centres unmarked)
< 1000 nM

Give its EC50 value. Item: COc1cc(C(=O)NCC(=O)c2cc3c(c(-c4ccc(F)c(Cl)c4)n2)OCC3C)ccc1OCCO (centres unmarked)
< 1000 nM

# input compound: `COc1cc(C(=O)NCC(=O)c2cc3c(c(-c4ccc(F)c(Cl)c4)n2)OCCC3)ccc1OCCF` ; wanted: its EC50
< 1000 nM
